# credit: PubChem BioAssay (NCI)

Give growth for every item shown.
system: DU-145 prostate; test: NCI-60 one-dose screen, 48 h (100 = growth as untreated, 0 = no growth, -100 = all killed); settings: 10 µM unless noted
About 83,000 compounds went through this panel and 20% of them were active in at least one assay; those are over-represented in the sample as a whole. Activity calls are given as the source filed them. Rule for the calls: active = growth percent below 10; inactive = the rest.

Past entries and their recorded results:
Look up and report measured growth for this entry: O=C(O)CC(C(=O)O)/C(=C\c1ccccc1)c1ccccc1 (centres undefined)
139% (inactive)

Look up and report measured growth for this entry: C=C1C(=O)O[C@H]2[C@H]1CC/C(COC(=O)NCc1ccc(Cn3c(=O)sn(-c4ccc(I)cc4)c3=O)cc1)=C\CC[C@@]1(C)O[C@@H]21
47.9% (inactive)

Look up and report measured growth for this entry: O=C(NC1CCC(Br)CC1)C1CCCC(S(=O)(=O)NC2CCCCC2)C1 (centres undefined)
29.9% [25 µM] (inactive)

Look up and report measured growth for this entry: CCOc1ccc(NC(=O)Nc2ccc(OCC)cc2)cc1
106% (inactive)

Look up and report measured growth for this entry: COc1cc(OC)c2c(=O)c3c(CC=C(C)C)cc(OC)c(O)c3oc2c1
85% (inactive)

Look up and report measured growth for this entry: COC(=O)/C=C1/SC(=Nc2ccc(F)cc2)N(CCc2c[nH]c3ccc(O)cc23)C1=O
37.2% (inactive)

Look up and report measured growth for this entry: C[C@@H]1CN(c2cnc(C(=O)Nc3cc(F)cc4cccnc34)cn2)C[C@H](C)N1
84.1% (inactive)

Look up and report measured growth for this entry: CCOC(=O)c1cn2ncnc(Oc3ccc(NC(=O)NC4CC4)c(Cl)c3)c2c1C
97% (inactive)

Attention now turns to another entry.
Look up and report measured growth for this entry: CSc1ccc2c3c(n(CCCn4ccnc4)c(=O)c2c1)-c1ccccc1C3=O
28.5% (inactive)

###

Give growth for every item shown.
test system: HOP-62 NSCLC; assay: NCI-60 one-dose screen, 48 h (100 = growth as untreated, 0 = no growth, -100 = all killed); conditions: 10 µM unless noted
About 83,000 compounds went through this panel and 20% of them were active in at least one assay; those are over-represented in the sample as a whole.
Numbers only, in %.

Past entries and their recorded results:
Look up and report measured growth for this entry: CNC(=O)c1cc(Oc2ccc3c(c2)sc2nc(-c4ccc(Cl)c(C(F)(F)F)c4)cn23)ccn1
75.9

Look up and report measured growth for this entry: CCOC(=O)c1nnn(-c2no[n+]([O-])c2-c2ccc(OC)cc2)c1COc1cccc2cccnc12
30.6

Look up and report measured growth for this entry: CCOC(=O)C(CCN(C)C)c1ccccc1 (centres undefined)
88.8

Look up and report measured growth for this entry: O=c1oc2ccccc2cc1-c1nn(-c2ccccc2)cc1-c1nn[nH]n1
90.8

Look up and report measured growth for this entry: O=c1oc2c(cc1-c1ccccc1)c[n+]([O-])c1ccccc21
99.2

For every record below, what is its growth?
1. COc1cc2ncnc(Nc3ccc(S(=O)(=O)Nc4nccs4)cc3)c2cc1OCCCN1CCCC1
2. CC[C@H](Nc1nc(N)nc(C)c1C#N)c1nc2cccc(CN(C)c3ncc(C(=O)NO)cn3)c2c(=O)n1-c1ccccc1
3. CCCN(CCSSCCNc1nc(N(C)O)nc(N(C)O)n1)c1nc(N(C)O)nc(N(C)O)n1
4. O=C(c1c[nH]c2ccccc12)c1n[nH]c(=S)n1-c1ccc([N+](=O)[O-])cc1

[103, 11.4, 24.5, 87.4]

###

system: EKVX NSCLC; experiment: NCI-60 one-dose screen, 48 h (100 = growth as untreated, 0 = no growth, -100 = all killed); conditions: 10 µM unless noted
This is part of a sample that, as a whole, favours compounds with a hit. Of some 83,000 tested, about 20% had one in any assay.
Binarize growth at 50%; below is Satisfied, at or above is Not satisfied.

Example results:
Is growth of Nc1cc(C(=O)O)cc(-n2c(O)c(C=C3N=c4ccccc4=N3)sc2=S)c1 strictly below 50%?
Not satisfied

Is growth of CC(=O)c1ccc(-n2cc(CN3CCN(c4cc5c(cc4F)c(=O)c(C(=O)O)cn5C4CC4)CC3)nn2)cc1 strictly below 50%?
Not satisfied

Is growth of COC12C=C/C(=C(/C(=O)OCc3csc(SC)n3)C(=O)CCCCCCCCC3(OC)C=C/C(=C(/C(=O)OCc4cnc(SC)s4)C(=O)CCCCCCCC1)O3)O2 (stereo not drawn) strictly below 50%?
Satisfied

Is growth of c1cc(OCCN2CCCCCC2)ccc1CNc1ccc2nc(CCC3CCCCC3)[nH]c2c1 strictly below 50%?
Not satisfied

Is growth of NC(=O)c1ccccc1OCC(=O)Nc1ccc(Cl)c(Cl)c1 strictly below 50%?
Not satisfied

Is growth of COc1ccc(C=Nc2c(C(=O)Nc3cccc(Cl)c3C)sc3nc(C)c(C(=O)/C=C/c4ccc(OC)cc4)cc23)cc1 strictly below 50%?
Satisfied

More entries:
Is growth of Cc1cc(NCCCNc2ccnc3cc(Cl)ccc23)nc(Nc2ccc(C(=O)N3CCCCC3)cc2)n1 strictly below 50%?
Satisfied

Is growth of COc1ccc(Nc2ncc(C#N)c(NCCCNC(=O)C3CCC3)n2)cc1 strictly below 50%?
Not satisfied

Is growth of O=C(Nc1cccnc1Nc1ccc(Cl)cc1)c1cn(Cc2cccc(Oc3ccccc3)c2)nn1 strictly below 50%?
Not satisfied

Is growth of COc1cc(C[C@H]2COc3cc(O)cc(O)c3C2=O)ccc1O strictly below 50%?
Not satisfied

Is growth of COc1ccc(-c2cc(-c3cn(-c4cccc(Cl)c4)nc3-c3ccc(OC)cc3)on2)cc1 strictly below 50%?
Not satisfied

Is growth of COc1ccc(Nc2ncc(I)c(NCCCNC(=O)C3CCC3)n2)cc1 strictly below 50%?
Satisfied

Is growth of COc1ccc(C(=O)C/C(=C\c2ccc(O)c(OC)c2)C(=O)NN)cc1 strictly below 50%?
Not satisfied

Is growth of O=C(/C=C/c1ccccc1)c1ccc(-n2cc(CN3CCN(c4cc5c(cc4F)c(=O)c(C(=O)O)cn5C4CC4)CC3)nn2)cc1 strictly below 50%?
Not satisfied

Is growth of Cc1ccc(O)c(NC(=O)c2cccc(Nc3ccnc(C(F)(F)F)c3)c2)c1 strictly below 50%?
Satisfied

Is growth of CC1(C)CC[C@]2(CO)CC[C@]3(C)[C@](O)([C@H](O)C[C@@H]4[C@@]5(C)CCCNC(C)(C)[C@@H]5CC[C@]43C)[C@@H]2C1 strictly below 50%?
Not satisfied

Is growth of C=CC(=O)Nc1cccc(Oc2nccc(Nc3nnc(-c4ccc(Br)cc4)s3)n2)c1 strictly below 50%?
Not satisfied

Is growth of Cc1nc2ccccc2c(/C=C/c2ccc(F)cc2)c1C(=O)/C=C/c1ccccc1 strictly below 50%?
Satisfied

###

tested on: MDA-MB-435 melanoma; assay: NCI-60 one-dose screen, 48 h (100 = growth as untreated, 0 = no growth, -100 = all killed); settings: 10 µM unless noted
The panel holds about 83,000 compounds, 20% with a hit somewhere; the sample as a whole holds those more often.
reported-endpoint: growth (%)
Answers are plain numbers, in %.

For every record below, what is its growth?
1. N#Cc1ccc(/C=C/c2cn(-c3ccccc3)nc2-c2cccc([N+](=O)[O-])c2)cc1
2. COC12C=C/C(=C(/C(=O)OCc3cncnc3)C(=O)CCCCCCCCC3(OC)C=C/C(=C(/C(=O)OCc4cncnc4)C(=O)CCCCCCCC1)O3)O2
3. COc1ccc(Oc2ccc(/C=C/C(=O)c3ccc(OC)c(OC)c3)cc2)cc1

1. 61.2
2. -49.8
3. 90.3

Look up and report measured growth for this entry: O=C(N/N=C/c1ccc(Cl)cc1)c1ccc(NC(=O)c2ccccn2)cc1
63.8

###

test system: OVCAR-4 ovarian; assay: NCI-60 one-dose screen, 48 h (100 = growth as untreated, 0 = no growth, -100 = all killed); conditions: 10 µM unless noted
This is part of a sample that, as a whole, favours compounds with a hit. Of some 83,000 tested, about 20% had one in any assay.
reported-endpoint: growth (%)
Give bare numbers, in %.

Past entries and their recorded results:
Look up and report measured growth for this entry: CN1CCN(Cc2ccc(NC(=O)c3cncc(C#Cc4cnc(N)cc4C#N)c3)cc2C(F)(F)F)CC1
23.2

Look up and report measured growth for this entry: COc1ccc(/C=N/Nc2c3ccccc3nc3ccccc23)cc1
81.7

Look up and report measured growth for this entry: COc1cc([C@@H](CCO)C[C@H](C)c2ccc3ccccc3c2)cc(OC)c1OC
55.8

Look up and report measured growth for this entry: CC1(C)CC(=O)C2=C(C1)C(c1ccc(Cl)cc1)n1ncc(C#N)c1N2 (centres undefined)
96.3

Look up and report measured growth for this entry: COC12C=C/C(=C(/C(=O)OCc3csc(SC)n3)C(=O)CCCCCCCCC3(OC)C=C/C(=C(/C(=O)OCc4cnc(SC)s4)C(=O)CCCCCCCC1)O3)O2 (centres undefined)
38.8

Look up and report measured growth for this entry: CCOc1ncc([N+](=O)[O-])c(OCC)n1
113

For every record below, what is its growth?
1. COc1cc2c(cc1-c1c(C)noc1C)ncc1nc(CN3CCOCC3)n([C@H](C)COC(F)F)c12
2. CCn1cc(C(=O)O)c(=O)c2cc(F)c(N3CCN(CC(=O)Nc4ccccc4)C(C)C3)c(F)c21 (centres undefined)
3. Cc1cc(Cl)nc(N2CCN(CCNc3ccnc4cc(Cl)ccc34)CC2)n1

1: 35.9; 2: 82.4; 3: 40.1
